- target: Metallo-beta-lactamase type 2 (Bacteria)
- measurement.description: Inhibition of NDM1 (unknown origin) expressed in Escherichia coli BL21(DE3) assessed as substrate hydrolysis at 100 uM by UV-Vis spectrophotometric analysis relative to control
reported.metric: inhibition

Here is how some compounds turned out for inhibition.
1) O=C(O)c1ccc(Cn2c(-c3ccccc3)n[nH]c2=S)cc1	< 30%
2) S=c1[nH]nc(-c2ccccc2)n1CCc1ccccc1	< 30%
3) O=C(NCc1ccccc1)c1ccccc1CCn1c(-c2ccccc2)n[nH]c1=S	45%
4) S=c1[nH]nc(Cc2ccccc2)n1CCc1ccccc1	< 30%
5) FC(F)(F)c1ccc(CCn2c(-c3ccccc3)n[nH]c2=S)cc1	< 30%
6) O=C1OC(Cn2c(Cc3ccc4ccccc4c3)n[nH]c2=S)c2ccccc21 (stereo not drawn)	< 30%

Q. // lookup inhibition for "S=c1[nH]nc(-c2ccccc2)n1CCc1c[nH]c2ccccc12"
A. < 30%

Q. Now the same for "Cc1ccccc1-c1n[nH]c(=S)n1CCc1ccccc1"
A. < 30%

Q. Now the same for O=C1OC(Cn2c(-c3ccccc3-c3ccccc3)n[nH]c2=S)c2ccccc21 (stereo not drawn)
A. < 30%

Q. Now the same for "S=c1[nH]nc(-c2cccc(-c3ccccc3)c2)n1[C@@H]1C[C@H]1c1ccccc1"
A. 69%

Q. Now the same for "Sc1nnc(-c2ccccc2)n1Cc1ccccc1"
A. < 30%

Q. Now the same for "S=c1[nH]nc(-c2ccccc2)n1CCc1ccc(OCc2ccccc2)cc1"
A. < 30%

Q. Now the same for "S=c1[nH]nc(-c2ccccc2)n1CCCCc1ccccc1"
A. 55%

Q. Now the same for "Cc1ccccc1-c1n[nH]c(=S)n1CCc1ccc(OCc2ccccc2)cc1"
A. < 30%

Data origin: ChEMBL document CHEMBL5325390
